SYSTEM_TESTED: PIK3CD (Human)
ASSAY_INFO: Cell-Based Assay
RUN_PARAMETERS: raji
For each entry below, report its IC50 value.

{"SMILES_ENTRY": "CC(C)n1c([C@H](C)NC(=O)c2c(N)nn3cccnc23)cc2cccc(Cl)c2c1=O", "SYSTEM_TESTED": "PIK3CD (Human)", "IC50": "< 100 nM"}

// each listed compound needs a value for IC50
1. COc1cc(-c2cccc3cc([C@H](C)NC(=O)c4c(N)nn5ccc(C)nc45)n(-c4ccccc4)c(=O)c23)ccn1
2. COc1cc(-c2cccc3cc([C@H](C)NC(=O)c4c(N)nn5cccnc45)n(-c4cccc(F)c4)c(=O)c23)ccn1
3. COc1ccc(-c2cnc(N)c(C(=O)N[C@@H](C)c3cc4cccc(Cl)c4c(=O)n3-c3ccccc3)n2)cc1OC
4. CC[C@H](NC(=O)c1c(N)nn2cccnc12)c1cc2cccc(Cl)c2c(=O)n1-c1ccccc1
5. CC(C)c1ccn2nc(N)c(C(=O)N[C@@H](C)c3cc4cccc(Cl)c4c(=O)n3-c3ccccc3)c2n1

1. < 100 nM
2. 100 to 1000 nM
3. 100 to 1000 nM
4. < 100 nM
5. 100 to 1000 nM

====

SYSTEM_TESTED: PIK3CG (human)
READOUT: IC50

{"SMILES_ENTRY": "Cc1cc(C)n2nc(N)c(C(=O)N[C@@H](C)c3cc4cccc(Cl)c4c(=O)n3-c3ccccc3)c2n1", "REPORTED": "0.1 to 1 µM"}
{"SMILES_ENTRY": "C[C@H](NC(=O)c1c(N)nn2cccnc12)c1cc2cccc(Cl)c2c(=O)n1-c1ccc(F)c(F)c1", "REPORTED": "< 0.1 µM"}
{"SMILES_ENTRY": "C[C@H](NC(=O)c1nc(-c2cscn2)cnc1N)c1cc2cccc(Cl)c2c(=O)n1-c1ccccc1", "REPORTED": "0.1 to 1 µM"}

Record IC50 for all entries; do not skip any.
1. C[C@H](NC(=O)c1c(N)nn2cccnc12)c1cc2cccc(C#CCNS(C)(=O)=O)c2c(=O)n1-c1ccccc1
2. COc1cc(-c2csc3cc([C@H](C)NC(=O)c4c(N)nn5cccnc45)n(-c4ccccc4)c(=O)c23)ccn1

1: 0.1 to 1 µM; 2: ≥ 10 µM

====

SYSTEM_TESTED: PIK3CD (Human)
ASSAY_INFO: Cell-Based Assay
RUN_PARAMETERS: raji
pIC50: −log10 of the molar value.
READOUT: pIC50

{"SMILES_ENTRY": "COc1cc(-c2cccc3cc([C@H](C)NC(=O)c4c(N)ncc5cccnc45)n(-c4ccccc4)c(=O)c23)ccn1", "pIC50": "> 7.00"}
{"SMILES_ENTRY": "C[C@H](NC(=O)c1c(N)nn2ccc(-c3cccc(S(C)(=O)=O)c3)nc12)c1cc2cccc(Cl)c2c(=O)n1-c1ccccc1", "pIC50": "> 7.00"}

Now look at this entry.
Dear colleague, please send me the reported pIC50 for C[C@H](NC(=O)c1nc(-c2cccc(NS(=O)(=O)N(C)C)c2)cnc1N)c1cc2cccc(Cl)c2c(=O)n1-c1ccccc1 when you can.
> 7.00

====

Kindly state IC50 for each of the entries shown.
SYSTEM_TESTED: PIK3CD (Human)
ASSAY_INFO: Enzyme Assay

Here is how some molecules turned out for IC50.
{"SMILES_ENTRY": "C[C@H](NC(=O)c1c(N)nn2cccnc12)c1cc2scc(Cl)c2c(=O)n1-c1ccccc1", "IC50": "100 to 1000 nM"}
{"SMILES_ENTRY": "C[C@H](NC(=O)c1c(N)nn2cccnc12)c1cc2cccc(N3CCN(C)CC3)c2c(=O)n1-c1ccccc1", "IC50": "≥ 10000 nM"}
{"SMILES_ENTRY": "C[C@H](NC(=O)c1nc(-c2ccccc2)cnc1N)c1cc2cccc(Cl)c2c(=O)n1-c1ccccc1", "IC50": "≥ 10000 nM"}
{"SMILES_ENTRY": "C[C@H](NC(=O)c1nccnc1N)c1cc2cccc(-c3cccnc3)c2c(=O)n1-c1ccccc1", "IC50": "< 100 nM"}

Dear colleague, could you send me IC50 for each of the items below? Thanks.
1. C[C@H](NC(=O)c1c(N)nn2cccnc12)c1cc2cccc(Cl)c2c(=O)n1-c1cccc(F)c1
2. COc1cccc(-c2cnc(N)c(C(=O)N[C@@H](C)c3cc4cccc(Cl)c4c(=O)n3-c3ccccc3)n2)c1
3. C=CCn1c([C@H](C)NC(=O)c2c(N)nn3cccnc23)cc2cccc(Cl)c2c1=O

1: 100 to 1000 nM; 2: ≥ 10000 nM; 3: 100 to 1000 nM

====

Answer each item with its documented IC50.
SYSTEM_TESTED: PIK3CD (Human)
ASSAY_INFO: Enzyme Assay

Quick one: give me IC50 for each item below, same order please.
1. C[C@H](NC(=O)c1c(N)nn2cccnc12)c1nn2ccc(Cl)c2c(=O)n1-c1ccccc1
2. C[C@H](NC(=O)c1c(N)nn2cccnc12)c1cc2cccc(Cl)c2c(=O)n1CCNCCO
3. C=CC(=O)NCC#Cc1cccc2cc([C@H](C)NC(=O)c3c(N)nn4cccnc34)n(-c3ccccc3)c(=O)c12

1. ≥ 10 µM
2. 0.1 to 1 µM
3. 0.1 to 1 µM
